This collection of values is drawn from paper PMC9911399.

Subject of test: T1, RBFOX1 RRM (Homo sapiens, UniProt Q9NWB1 109-208)
T1 sequence: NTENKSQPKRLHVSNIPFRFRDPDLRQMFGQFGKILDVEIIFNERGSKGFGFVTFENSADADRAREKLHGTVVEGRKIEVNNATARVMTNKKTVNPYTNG
Assay notes: EMSA; HiTS-Eq, 1 nM pool, 10 min; buffer printed only for the single-RNA assays: 10 mM Tris pH 7.5, 150 mM NaCl, 3.4 mM EDTA, 0.001% NP-40, 30 C
Applied conditions: tags: His6 N-terminal (pET28a); label: 5' 32P
In all, about 16,000 sequences were measured (“ka relative to ugcaugu”: median about 0.0091, highest 2% from about 0.032 on). This excerpt belongs to a sample that is enriched for the highest values.
Entries and their measured binding signal follow.

Requested read-out: binding signal. Entry: CUGGGGU (DNA:RNA) RNA: GGGAGACCGGAAUUCAGAUUGUCCCUGGGGUUUAAAUCCCGUCGUAGCCACCA DNA 1: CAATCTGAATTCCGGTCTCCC DNA 2: TGGTGGCTACGACGGGATT
0.018 KA relative to UGCAUGU

// lookup binding signal for UCCAGUC (DNA:RNA) RNA: GGGAGACCGGAAUUCAGAUUGUCCUCCAGUCUUAAAUCCCGUCGUAGCCACCA DNA 1: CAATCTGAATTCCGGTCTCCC DNA 2: TGGTGGCTACGACGGGATT
0.00851 KA relative to UGCAUGU
